# target-desc: mu receptor (Rattus norvegicus)
# Construct: The brain tissue, rat whole brain minus cerebellum for mu was homogenized; from tissue; host or cells: brain minus cerebellum of male Sprague Dawley rats, homogenate fraction
# test-method-notes: Naloxone [3H] opioid receptor binding assay (mu receptor)
# Parameters: species or system rat (male Sprague Dawley)
# experimental-context: […]; rat whole brain minus cerebellum; [3H]naloxone 0.5 nM; pH 7.4, 37° C., 20 min; read-out: Ki
pKi: −log10 of the molar value. Structures can show the parent of a compound that is named as a salt.
Tag: TRUE if measured pKi is not below 9, FALSE if it is.

Observe how each entry below is paired with its result.
>  <molecule>
COC(=O)CCCC(=O)N[C@@H](CC1CCCCC1)CN1CC[C@](C)(c2cccc(O)c2)[C@H](C)C1

>  <label-value>
FALSE

$$$$
>  <molecule>
CNC(=O)CNC(=O)CC(=O)N(CCN1CC[C@@](C)(c2cccc(O)c2)[C@@H](C)C1)C1CCCCC1 (relative stereo) [Example 38, monohydrochloride]

>  <label-value>
FALSE

$$$$
>  <molecule>
CC(C)OC(=O)CCC(=O)N(CCN1CC[C@@](C)(c2cccc(O)c2)[C@@H](C)C1)C1CCCCC1 (relative stereo)

>  <label-value>
FALSE

$$$$
>  <molecule>
CCOC(=O)CCCC(=O)N(CCCN1CC[C@@](C)(c2cccc(O)c2)[C@@H](C)C1)C1CCCCC1 (relative stereo) [Example 33, monohydrochloride]

>  <label-value>
TRUE

$$$$
>  <molecule>
CCOC(=O)CCC(=O)N(CCN1CC[C@@](C)(c2cccc(O)c2)[C@@H](C)C1)C1CCCCC1 (relative stereo)

>  <label-value>
FALSE

$$$$
>  <molecule>
CCCOC(=O)CCC(=O)N(CCN1CC[C@@](C)(c2cccc(O)c2)[C@@H](C)C1)C1CCCCC1 (relative stereo)

>  <label-value>
FALSE

$$$$
>  <molecule>
CCOC(=O)CCCC(=O)NC(CCN1CC[C@@](C)(c2cccc(O)c2)[C@@H](C)C1)CC(C)C (single isomer, unassigned) [Example 3A, monohydrochloride]

>  <label-value>
TRUE

$$$$
>  <molecule>
C[C@H]1CN(CC(Cc2ccccc2)NC(=O)CCCC(=O)O)CC[C@@]1(C)c1cccc(O)c1 (relative stereo) [Example 15, monohydrate]

>  <label-value>
FALSE

$$$$
>  <molecule>
CC(=O)NC(CCN1CC[C@@](C)(c2cccc(O)c2)[C@@H](C)C1)c1ccccc1 (stereo in doubt)

>  <label-value>
FALSE

$$$$
>  <molecule>
COC(=O)CCCC(=O)N[C@@H](CC1CCCCC1)CN1CC[C@@](C)(c2cccc(O)c2)[C@@H](C)C1

>  <label-value>
FALSE

$$$$

stdin: I'd appreciate it if you could say whether COC(=O)[C@H](Cc1ccccc1)NC(=O)CCC(=O)N(CCN1CCC(C)(c2cccc(O)c2)C(C)C1)C1CCCCC1 (stereo partly shown) has pKi at least equal to 9.
stdout: FALSE

----------
# target-desc: mu receptor (Rattus norvegicus, UniProt P33535)
# Construct: The brain tissue, rat whole brain minus cerebellum for mu was homogenized; from tissue; host or cells: brain minus cerebellum of male Sprague Dawley rats, homogenate fraction
# Sequence (P33535 whole entry): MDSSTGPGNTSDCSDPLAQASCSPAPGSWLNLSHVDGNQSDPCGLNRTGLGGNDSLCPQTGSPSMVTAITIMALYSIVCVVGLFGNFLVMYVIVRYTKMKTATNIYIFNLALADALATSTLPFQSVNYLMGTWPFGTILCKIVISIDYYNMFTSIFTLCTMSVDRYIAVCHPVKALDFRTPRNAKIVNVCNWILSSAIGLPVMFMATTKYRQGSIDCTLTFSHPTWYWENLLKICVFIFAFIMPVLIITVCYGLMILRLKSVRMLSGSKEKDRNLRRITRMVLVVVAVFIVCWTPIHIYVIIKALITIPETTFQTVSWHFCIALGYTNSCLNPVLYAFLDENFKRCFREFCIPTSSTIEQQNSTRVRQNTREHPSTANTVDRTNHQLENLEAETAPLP
# test-method-notes: Naloxone [3H] opioid receptor binding assay (mu receptor)
# Set-up: species or system rat (male Sprague Dawley)
# experimental-context: 20 min, pH 7.4, read-out: % displacement at 100 nM
Counter-ions that a name gives are not always drawn.
readout-type: inhibition at 0.1 µM (%)
// units = %; emit number, no label

Record excerpt, results attached:
>  <compound>
CCCOC(=O)CCCC(=O)N[C@@H](CC1CCCCC1)CN1CC[C@@](C)(c2cccc(O)c2)[C@@H](C)C1

>  <inhibition at 0.1 µM (%)>
96

$$$$
>  <compound>
C[C@H]1CN(C[C@H](CC2CCCCC2)NC(=O)CCCC(=O)OCC(N)=O)CC[C@@]1(C)c1cccc(O)c1

>  <inhibition at 0.1 µM (%)>
97

$$$$

Short answer for CC(C)OC(=O)CCC(=O)N(CCN1CC[C@@](C)(c2cccc(O)c2)[C@@H](C)C1)C1CCCCC1 (relative stereo) : inhibition at 0.1 µM was 96

Input CCOC(=O)CCC(=O)NC(CCN1CC[C@@](C)(c2cccc(O)c2)[C@@H](C)C1)CC(C)C (single isomer, unassigned) [Example 2A] . Output inhibition at 0.1 µM: 100

Lookup result for C[C@H]1CN(CCCN(CC2CCCCC2)C(=O)CCCC(=O)O)CC[C@@]1(C)c1cccc(O)c1 (relative stereo) [Example 27, monohydrate] ; measured inhibition at 0.1 µM: 93

# inhibition at 0.1 µM (compound: C[C@H]1CN(CCC(CC2CCCCC2)NC(=O)CCC(=O)O)CC[C@@]1(C)c1cccc(O)c1 (stereo partly shown) [Example 1, monohydrate] ) is 94

Input C[C@@H]1CN(C[C@@H](CC2CCCCC2)NC(=O)CCCC(=O)O)CC[C@]1(C)c1cccc(O)c1 [Example 48D] . Output inhibition at 0.1 µM: 78

inhibition at 0.1 µM reading for CC(C)CC(=O)NCCCC(=O)N(CCN1CC[C@@](C)(c2cccc(O)c2)[C@@H](C)C1)C1CCCCC1 (relative stereo) [Example 40, hydrochloride] : 100

Lab note: measured inhibition at 0.1 µM of CNC(=O)COC(=O)CCCC(=O)N[C@@H](CC1CCCCC1)CN1CC[C@](C)(c2cccc(O)c2)[C@H](C)C1 was 96

Query C[C@H]1CN(CCN(C(=O)CCCC(=O)O)c2ccccc2)CC[C@@]1(C)c1cccc(O)c1 (relative stereo) [Example 20, monohydrate] yields inhibition at 0.1 µM of 99
